# METHOD NOTES: qHTS assay for small molecule disruptors of the mitochondrial membrane potential - cell viability (AID 720634); note: nearly all actives have a fitted effect of over 20% in size
# STUDY CONDITIONS: HepG2 viability, ATP luminescence (CellTiter-Glo), 1 h; series mostly up to 83.2 µM
Inconclusive results are not listed. Active and inactive are the calls of the source. Calls come from the whole dose curve.
Outcome codes: 1 (active), 0 (inactive)

[
  {
    "COMPOUND": "CCOC(=O)[C@]1(c2ccccc2)Oc2ccccc2[C@@H]1N",
    "ASSIGNED CLASS": 0
  },
  {
    "COMPOUND": "COC(=O)C(Cl)C(=O)OC",
    "ASSIGNED CLASS": 0
  },
  {
    "COMPOUND": "CC/C(=N\\OC/C=C/Cl)C1=C(O)CC(C2CCOCC2)CC1=O (stereo not given)",
    "ASSIGNED CLASS": 0
  },
  {
    "COMPOUND": "C[N+](C)(C)CCCl",
    "ASSIGNED CLASS": 0
  },
  {
    "COMPOUND": "Clc1cc(C(Cl)(Cl)Cl)cnc1Cl",
    "ASSIGNED CLASS": 0
  },
  {
    "COMPOUND": "Brc1ccccc1",
    "ASSIGNED CLASS": 0
  },
  {
    "COMPOUND": "C(=NC1CCCCC1)=NC1CCCCC1",
    "ASSIGNED CLASS": 1
  },
  {
    "COMPOUND": "O=C(CBr)c1ccccc1",
    "ASSIGNED CLASS": 0
  },
  {
    "COMPOUND": "c1ccoc1",
    "ASSIGNED CLASS": 0
  },
  {
    "COMPOUND": "CCCCCCCCCC(=O)O[C@H]1CC[C@H]2[C@@H]3CCC4=CC(=O)CC[C@@H]4[C@H]3CC[C@]12C",
    "ASSIGNED CLASS": 0
  },
  {
    "COMPOUND": "C=CC(=O)OC",
    "ASSIGNED CLASS": 0
  },
  {
    "COMPOUND": "Clc1cc(Cl)c(Cl)c(Cl)c1",
    "ASSIGNED CLASS": 0
  },
  {
    "COMPOUND": "CCN(C)N=O",
    "ASSIGNED CLASS": 0
  },
  {
    "COMPOUND": "CS/C(C)=N/OC(=O)N(C)SN(C)C(=O)O/N=C(\\C)SC",
    "ASSIGNED CLASS": 0
  },
  {
    "COMPOUND": "[CH3][Sn]([CH3])([Cl])[Cl]",
    "ASSIGNED CLASS": 0
  },
  {
    "COMPOUND": "O=[N+]([O-])C(Br)(CO)CO",
    "ASSIGNED CLASS": 0
  },
  {
    "COMPOUND": "NNC(=O)c1cccnc1",
    "ASSIGNED CLASS": 0
  },
  {
    "COMPOUND": "c1ccc(C2CC2)c(OCC2=NCCN2)c1",
    "ASSIGNED CLASS": 0
  },
  {
    "COMPOUND": "CC(=O)C(C)(C)C",
    "ASSIGNED CLASS": 0
  },
  {
    "COMPOUND": "CCOP(O)OCC",
    "ASSIGNED CLASS": 0
  },
  {
    "COMPOUND": "CCC(Br)(CC)C(=O)NC(N)=O",
    "ASSIGNED CLASS": 0
  },
  {
    "COMPOUND": "BrCCCCBr",
    "ASSIGNED CLASS": 0
  },
  {
    "COMPOUND": "CCOC(=O)COc1cc(-c2nn(C)c(OC(F)F)c2Cl)c(F)cc1Cl",
    "ASSIGNED CLASS": 0
  },
  {
    "COMPOUND": "OC(c1ccc(Cl)cc1)(c1ccc(Cl)cc1)c1cccnc1",
    "ASSIGNED CLASS": 0
  },
  {
    "COMPOUND": "c1ccc(CN2CCNCC2)cc1",
    "ASSIGNED CLASS": 0
  },
  {
    "COMPOUND": "CCCCCCC#N",
    "ASSIGNED CLASS": 0
  },
  {
    "COMPOUND": "Brc1ccc(Oc2ccccc2)cc1",
    "ASSIGNED CLASS": 0
  },
  {
    "COMPOUND": "C=CCN1CC[C@]23c4c5ccc(O)c4O[C@H]2C(=O)CC[C@@]3(O)[C@H]1C5",
    "ASSIGNED CLASS": 0
  },
  {
    "COMPOUND": "O=C(O)c1ccccc1C(=O)Nc1cccc2ccccc12",
    "ASSIGNED CLASS": 0
  },
  {
    "COMPOUND": "O=C1CN=C(c2ccccc2)c2cc(Cl)ccc2N1CC1CC1",
    "ASSIGNED CLASS": 0
  }
]
